From: PubChem BioAssay (NCI)

Tested on: UACC-257 melanoma
Test description: NCI tumour cell line growth inhibition, 48 h
Kindly state TGI for each of the entries shown.

May I ask what TGI has been recorded for C=CCSc1nnc2cc(CN3CCCC3)c(-c3ccc(Cl)cc3)nn12 ?
32.3 µM

Another compound: CCC1(CC)C(=O)NN(C(=O)c2ccccc2)C1=O
> 100 µM

Another compound: O=C(O)CCC(=O)OC1N=C(c2ccccc2Cl)c2cc([N+](=O)[O-])ccc2NC1=O (stereo unspecified)
> 100 µM

Another compound: CN1CCN(CCCn2c(=O)c3sc4ncccc4c3n3nnc(-c4ccccc4)c23)CC1
7.62 µM

Another compound: NC1=NCC(CN2CCOCC2)O1 (stereo unspecified)
> 100 µM

Another compound: O=C(CC(C(=O)c1ccsc1)c1ccc2c(c1)OCO2)c1ccccc1 (stereo unspecified)
> 100 µM

Another compound: ClCc1cccc(Cn2cnc3ncnc(Cl)c32)c1
5.52 µM

Another compound: COc1cc(OC)cc(-c2cc(=O)c3c(OC)c(OC)c(OC)c(OC)c3o2)c1
> 100 µM

Another compound: Cc1nc(N)c(N2CCN([N+](=O)[O-])CC2)c(=O)[nH]1
> 100 µM

Another compound: COc1ccc2c(c1)OCC1Cc3ccccc3OC21 (stereo unspecified)
> 100 µM

Another compound: CS(=O)c1ncc2c(n1)-c1ccccc1OC2 (stereo unspecified)
> 100 µM

Another compound: c1c[nH]c(-c2ccc(-c3ccc[nH]3)c3nsnc23)c1
> 100 µM

Another compound: CSC(=S)N/N=C(\C)c1ccc(S(=O)(=O)N(C)c2ccccc2)cc1
> 100 µM

Another compound: Cc1ccccc1S(=O)(=O)OC1NS(=O)(=O)c2ccccc21 (stereo unspecified)
> 100 µM

Another compound: [O-][n+]1ccccc1Sc1nc(Sc2cccc[n+]2[O-])nc(Sc2cccc[n+]2[O-])n1
6.23 µM

Another compound: CC[C@H](Nc1ncnc2nc[nH]c12)c1oc2ccccc2c(=O)c1-c1cccc(F)c1
> 100 µM
